B1: FBXO39 (parent)
chain: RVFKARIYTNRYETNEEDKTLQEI

Variants of: B1
Assay: protein stability index of a GFP-peptide fusion (GPS, HEK-293T) (PSI 1-6); higher = more stable;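 also: lentivirally expressed fusions sorted by FACS into six bins by GFP to DsRed ratio, PSI derived from sequencing read proportions per bin multiplied by bin number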
Conditions: c terminus: a fixed tail appended
Kind request: treat 3 as inclusive, so protein stability index at 3 or higher is Met, anything lower is Not met.

Worked cases, answers included:
query-sequence | discrete-label
RVFKARIYTNRYETNEEDKTLQES [I24S] | Met
RVFKARIYTNRYEQNEEDKTLQEI [T14Q] | Not met
RVCKARIYTNRYETNEEDKTLQEI [F3C] | Not met

Input line: Is it the case that RVFKARIYTNRYETNEEDKTLQYI [E23Y] has protein stability index reaching or exceeding 3?
Output line: Not met

Input line: RVFKARIYTNEYETNEEDKTLQEI [R11E] , same question.
Output line: Met

Input line: RVFKARIHTNRYETNEEDKTLQEI [Y8H] , same question.
Output line: Met

Input line: RVFKARIYTNRYETNEEDKTLQEF [I24F] , same question.
Output line: Not met
